Reported pIC50 values for a set of compounds
system: 5-lipoxygenase (Mus musculus)
Construct: over 98% of cells were confirmed as mast cells originated from bone marrow; endogenous in cells; host or cells: bone marrow-derived mast cells from male BALB/cJ mice
protocol.description: Measurement of 5-lipoxygenase inhibition activity (free LTC4 from SCF-stimulated bone marrow-derived mast cells, enzyme immunoassay)
Format: cell-based, mouse (male BALB/cJ mice)
pIC50: −log10 of the molar value.
outcome.measure: pIC50

>>> numeric_result("CCc1ccc(Nc2nc3cc(Cl)ccc3o2)cc1")
6.02
>>> numeric_result("O=[N+]([O-])c1ccc(-c2nc3ccccc3s2)cc1")
4.96

====

outcome.measure: melting point

>>> result("CCc1ccc(Nc2nc3cc([N+](=O)[O-])ccc3o2)cc1")
"161 to 163.5 °C"
>>> result("CCc1ccc(Nc2nc3cc(Cl)ccc3o2)cc1")
"196 to 198 °C"
>>> result("Clc1ccc2oc(Nc3ccc(N=Nc4ccccc4)cc3)nc2c1")
"191 to 192.3 °C"
>>> result("N#Cc1ccc(-c2nc3ccccc3s2)cc1")
"120 to 123 °C"
>>> result("FC(F)Sc1ccccc1-c1nc2ccccc2s1")
"188 to 190 °C"
>>> result("Clc1ccc(Nc2nc3cccnc3s2)cc1Cl")
"270 to 272 °C"
>>> result("COc1ccc(-c2nc3ccccc3s2)cc1OC")
"132 to 133 °C"
>>> result("CCc1ccc(Nc2nc3ccccc3o2)cc1")
"123 to 125.3 °C"
>>> result("Fc1ccc(-c2nc3ccccc3s2)cc1")
"128 to 130.5 °C"

====

system: 5-lipoxygenase (Mus musculus, UniProt P48999)
Construct: over 98% of cells were confirmed as mast cells originated from bone marrow; endogenous in cells; host or cells: bone marrow-derived mast cells from male BALB/cJ mice
Sequence (P48999 whole entry): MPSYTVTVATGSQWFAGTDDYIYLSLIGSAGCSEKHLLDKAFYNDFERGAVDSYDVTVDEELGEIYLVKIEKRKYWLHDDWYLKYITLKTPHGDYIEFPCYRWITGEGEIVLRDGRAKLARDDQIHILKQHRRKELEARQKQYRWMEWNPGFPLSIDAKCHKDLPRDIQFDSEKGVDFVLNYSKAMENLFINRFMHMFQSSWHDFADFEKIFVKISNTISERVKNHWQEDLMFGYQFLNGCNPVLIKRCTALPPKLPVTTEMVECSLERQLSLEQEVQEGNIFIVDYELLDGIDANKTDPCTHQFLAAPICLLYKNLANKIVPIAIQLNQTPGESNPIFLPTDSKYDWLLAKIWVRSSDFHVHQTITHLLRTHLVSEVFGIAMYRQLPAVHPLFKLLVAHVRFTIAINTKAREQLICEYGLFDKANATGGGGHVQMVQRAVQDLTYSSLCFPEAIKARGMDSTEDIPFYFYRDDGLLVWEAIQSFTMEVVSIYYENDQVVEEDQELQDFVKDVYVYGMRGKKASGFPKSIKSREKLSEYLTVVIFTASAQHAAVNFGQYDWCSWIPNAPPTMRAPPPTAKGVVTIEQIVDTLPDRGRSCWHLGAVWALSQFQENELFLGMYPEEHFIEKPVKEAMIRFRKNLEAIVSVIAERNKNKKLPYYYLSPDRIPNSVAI
protocol.description: Measurement of 5-lipoxygenase inhibition activity (free LTC4 from SCF-stimulated bone marrow-derived mast cells, enzyme immunoassay)
Assay type: cell-based, mouse (male BALB/cJ mice)
condition.parameters: mast cells originated from bone marrow of BALB/cJ mice, 1×10^6 cells/ml; 30 min preincubation at 37° C.; 100 ng/ml SCF stimulation 20 min; free LTC4 by enzyme immunoassay; vs non-treated control; read-out: IC50
pIC50: −log10 of the molar value.
outcome.measure: pIC50

>>> numeric_result("FC(F)Sc1ccccc1-c1nc2ccccc2s1 [Example 15]")
5.81
>>> numeric_result("CCSc1ncccc1-c1nc2ccccc2s1 [Example 23]")
5.21
>>> numeric_result("ClCc1cccc(-c2nc3ccccc3s2)c1 [Example 22]")
5.60
>>> numeric_result("c1ccc(N=Nc2ccc(Nc3nc4ccccc4o3)cc2)cc1 [Example 4, 4-phenylazophenyl aminobenzoxazole]")
5.20
>>> numeric_result("COc1ccc(-c2nc3ccccc3s2)cc1OC [Example 21]")
5.56
>>> numeric_result("CCCCOc1ccc(-c2nc3ccccc3s2)cc1 [Example 17]")
5.03
>>> numeric_result("O=[N+]([O-])c1ccc2oc(Nc3ccc(N=Nc4ccccc4)cc3)nc2c1 [Example 10]")
4.55
>>> numeric_result("O=[N+]([O-])c1ccc(Cl)c(-c2nc3ccccc3s2)c1 [Example 18]")
5.60
>>> numeric_result("CCc1ccc(Nc2nc3ccccc3o2)cc1 [Example 6]")
5.92
